Values were extracted from paper PMC3063099.

# SYSTEM UNDER TEST: CYP3A4 mutant F304W (Homo sapiens, UniProt P08684, F304W)
# Sequence (P08684 whole entry F304W): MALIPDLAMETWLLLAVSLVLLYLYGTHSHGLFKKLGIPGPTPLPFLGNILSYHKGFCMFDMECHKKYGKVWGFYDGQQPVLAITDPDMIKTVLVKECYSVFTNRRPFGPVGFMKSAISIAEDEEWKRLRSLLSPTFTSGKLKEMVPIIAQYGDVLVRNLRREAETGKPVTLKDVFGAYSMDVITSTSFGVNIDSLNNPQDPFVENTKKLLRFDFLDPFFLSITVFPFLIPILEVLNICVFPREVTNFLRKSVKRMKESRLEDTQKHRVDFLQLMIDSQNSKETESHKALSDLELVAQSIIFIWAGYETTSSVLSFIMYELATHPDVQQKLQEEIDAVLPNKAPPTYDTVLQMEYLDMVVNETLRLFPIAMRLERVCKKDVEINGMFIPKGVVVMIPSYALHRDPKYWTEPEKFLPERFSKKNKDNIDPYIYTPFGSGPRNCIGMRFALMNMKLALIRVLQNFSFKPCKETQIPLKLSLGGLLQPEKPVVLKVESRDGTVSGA
# ASSAY NOTES: Absorbance titration, substrate-induced spin shift
# APPLIED CONDITIONS: human, 0.1 m na-hepes, pH 7.4
REPORTED PROPERTY: pKd
Recall that pKd is obtained by taking minus log10 of the concentration measured in molar.

What pKd value was documented for this compound, OCCCCc1ccc2ccc3cccc4ccc1c2c34 [1-PB, 1-pyrenebutanol] ?
4.97

###

# SYSTEM UNDER TEST: CYP3A4 mutant F213W (Homo sapiens, UniProt P08684, F213W)
# Sequence (P08684 whole entry F213W): as the sequence (P08684 whole entry F304W) above, with F213W, W304F counted along it
# ASSAY NOTES: Titration-by-dilution monitored by FRET
# Assay type: binding
# APPLIED CONDITIONS: KD1, F213W; equimolar enzyme-substrate mixture; FRET; 0.6 mg/ml HPCD
REPORTED PROPERTY: Kd
Please answer in the form of a number followed by its unit of measurement.

Item OCCCCc1ccc2ccc3cccc4ccc1c2c34 has what recorded Kd?
70 nM
